target: T1, recombinant human Pro-Factor D (human, UniProt P00746 20-253); assay: sandwich ELISA: Factor D titrated (ug/ml Df) on plate-bound goat polyclonal AF1824; purified recombinant human IgG4 antibody as detection antibody; OD450
T1 construct: also used for the endogenous pro-Factor D detected in 3MC patient serum; also called pro CFD; hPro-CFD

# binder, binding result
records = [
    ("27B3, purified recombinant, human IgG4 (antibody, V domains shown, Mouse variable regions on human IgG4 (S228P) and human kappa constant regions) VH: QVTLKESGPGILQSSQTLSLTCSFSGISLNISGMGVSWIRQPSGKGLEWLAHIYWDDEKHYNPSLKRRLTISKDASRNQVFFRISSVDSADTATYYCALRYYGYGSIMDYWGHGTSVTVSS VL: DVLMTQTPLSLPVSLGDQASISCRSSQSIVHSNGNTYFEWYLQKPGQSPKLLIYKVSNRFSGVPDRFSGSGSGTDFTLKISRVEAEDLGVYYCFQGSHVPPTFGGGTKLEIKR", "no binding"),
    ("6G6, purified recombinant, human IgG4 (antibody, V domains shown, Mouse variable regions on human IgG4 (S228P) and human kappa constant regions) VH: QITLKESGPGILQSSQTLSLTCSFSGISLTTSGMGVSWIRQPSGKGLEWLAHIYWDDEKHYHPSLKSRLTISKDASRNQVFFRILSVDTADTATYYCALRYYGYRSFMDYWGQGTSVTVSS VL: DVLMTQSPLSLPVSLGDQASIFCRSNQSIVHSNGNTYFEWYLQKPGQSPKLLIYKVSNRFSGVPDRFSGSGSGTDFTLRISRVEAEDLGVYYCFQGSHVPPTFGGGTKLEIKR", "no binding"),
    ("10G1, purified recombinant, human IgG4 (antibody, V domains shown, Mouse variable regions on human IgG4 (S228P) and human kappa constant regions) VH: QVTLKESGPGILQSSQTLSLTCSFSGVSLSSSGMGVSWIRQPSGKGLEWLAHIYWDDEKHYNPSLKSRLTISKGASRNQVFLKIISVDTADTATYYCALRYYGYNSIMHYWGQGASVTVSS VL: DVLMTQTPLSLPVSLGDQASISCRSSESIVHSNGNTYLEWYLQKPGQSPKLLIYKVYNRFSGVPDRFSGSGSGTDFTLKISRVEAEDLGVYYCFQGSHVPPTFGGGTKLEIKR", "no binding"),
]
